system: BFTC-905; experiment: cells; assay type: functional, cell-based; settings: Homo sapiens
Description: SANGER: Inhibition of human BFTC-905 cell growth in a cell viability assay.
MEASUREMENT NAME: IC50

Answered examples (6):
O=c1cc(N2CCOCC2)oc2c(-c3cccc4c3sc3ccccc34)cccc12 :: > 2 µM
Cn1cc(/C=C2\C(=O)Nc3cccnc32)c2ccccc21 :: > 2 µM
Fc1cc(-c2cc[nH]/c(=N/c3ccc(-n4cnc(N5CCOCC5)n4)cc3)n2)cc(N2CCOCC2)c1 :: 0.141 µM
CC(O)(CS(=O)(=O)c1ccc(F)cc1)C(=O)Nc1ccc(C#N)c(C(F)(F)F)c1 (configuration not stated) [BICALUTAMIDE] :: > 1.02 µM
C/C=C(/C)C(=O)O[C@H]1C(C)=C2[C@H]([C@@H]1OC(=O)CCCCCCC)[C@@](C)(OC(C)=O)C[C@H](OC(=O)CCC)[C@@]1(O)[C@H]2OC(=O)[C@@]1(C)O [THAPSIGARGIN] :: 0.000662 µM
O=c1[nH]c2ccccc2n1C1CCN(Cc2ccc(-c3nc4cc5[nH]cnc5cc4nc3-c3ccccc3)cc2)CC1 :: > 2.56 µM

Query compound follows.
Look up IC50 of `C/C(O)=C(\C#N)C(=O)Nc1cc(Br)ccc1Br` and report it.
> 16 µM

###

test system: GAMG; experiment: cells; format: functional, cell-based; conditions: Homo sapiens;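 note: cell growth inhibition measured by a viability assay in the GAMG human cell line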
Description: SANGER: Inhibition of human GAMG cell growth in a cell viability assay.
MEASUREMENT NAME: IC50

Answered examples (4):
N#C/C(=C1/Nc2ccccc2S1)c1ccnc(NCCc2cccnc2)n1 :: > 8000 nM
O=c1cc(N2CCOCC2)oc2c(-c3cccc4c3sc3ccccc34)cccc12 :: > 2000 nM
Cn1cc(/C=C2\C(=O)Nc3cccnc32)c2ccccc21 :: > 2000 nM
Fc1cc(-c2cc[nH]/c(=N/c3ccc(-n4cnc(N5CCOCC5)n4)cc3)n2)cc(N2CCOCC2)c1 :: 1340 nM

Query compound follows.
Look up IC50 of CC(O)(CS(=O)(=O)c1ccc(F)cc1)C(=O)Nc1ccc(C#N)c(C(F)(F)F)c1 (stereo not given) [BICALUTAMIDE] and report it.
> 1020 nM

###

system: RCM-1; experiment: cells; format: functional, cell-based; conditions: Homo sapiens;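 note: growth inhibition of the RCM-1 line, determined with a cell viability readout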
Description: SANGER: Inhibition of human RCM-1 cell growth in a cell viability assay.
Can you tell me IC50 for the items I'm about to list?

Answered examples (3):
C[C@]1(c2nc3c(C(N)=O)cccc3[nH]2)CCCN1 :: > 5 µM
C/C(O)=C(\C#N)C(=O)Nc1cc(Br)ccc1Br :: > 16 µM
CC(=O)c1c(C)c2cnc(Nc3ccc(N4CCNCC4)cn3)nc2n(C2CCCC2)c1=O :: > 4 µM

Dear reader, for each entry below, please note its IC50.
1. C[C@]12O[C@H](C[C@]1(O)CO)n1c3ccccc3c3c4c(c5c6ccccc6n2c5c31)CNC4=O
2. CC(O)(CS(=O)(=O)c1ccc(F)cc1)C(=O)Nc1ccc(C#N)c(C(F)(F)F)c1 (stereo not given) [BICALUTAMIDE]

["1.59 µM", "> 1.02 µM"]

###

Can you tell me pIC50 for the items I'm about to list?
test system: HCE-T; test: cells; type: functional, cell-based; settings: Homo sapiens;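 note: cell viability assay read-out, reporting inhibition of HCE-T cell growth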
Description: SANGER: Inhibition of human HCE-T cell growth in a cell viability assay.
One number for each entry, as −log10 of the molar value.

Answered examples (2):
CCNC(=O)c1noc(-c2cc(C(C)C)c(O)cc2O)c1-c1ccc(CN2CCOCC2)cc1 [LUMINESPIB] :: 7.54
Fc1cc(-c2cc[nH]/c(=N/c3ccc(-n4cnc(N5CCOCC5)n4)cc3)n2)cc(N2CCOCC2)c1 :: 5.55

Query compound follows.
Look up pIC50 of CC[C@]1(O)C[C@@H]2CN(CCc3c([nH]c4ccccc34)[C@@](C(=O)OC)(c3cc4c(cc3OC)N(C)[C@H]3[C@@](O)(C(=O)OC)[C@H](OC(C)=O)[C@]5(CC)C=CCN6CC[C@]43[C@@H]65)C2)C1 [VINBLASTINE] and report it.
7.70
